- TEST SYSTEM: Cloned Human Serotonin Receptor, subtype 7 (h5HT7) (Homo sapiens)
- Sequence (P34969 whole entry): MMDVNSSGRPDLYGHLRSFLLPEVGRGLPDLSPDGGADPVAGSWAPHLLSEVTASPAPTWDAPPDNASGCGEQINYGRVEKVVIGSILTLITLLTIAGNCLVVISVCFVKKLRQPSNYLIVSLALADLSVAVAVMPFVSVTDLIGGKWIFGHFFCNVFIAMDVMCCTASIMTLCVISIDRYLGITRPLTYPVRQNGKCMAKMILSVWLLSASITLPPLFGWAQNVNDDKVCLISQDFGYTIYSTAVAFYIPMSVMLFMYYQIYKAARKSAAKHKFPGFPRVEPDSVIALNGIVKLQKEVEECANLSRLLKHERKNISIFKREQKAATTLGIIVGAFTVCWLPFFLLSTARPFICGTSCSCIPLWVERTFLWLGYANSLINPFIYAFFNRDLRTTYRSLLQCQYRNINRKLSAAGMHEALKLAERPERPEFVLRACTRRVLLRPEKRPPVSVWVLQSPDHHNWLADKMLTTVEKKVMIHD
- ASSAY METHOD TEXT: Radioligand binding assay, cloned human 5-HT7 receptor in CHO cells, [125I]LSD, Flashplate
- REPORTED CONDITIONS: h5HT7 expressed in CHO cells; [125I]LSD 0.82 nM; triplicate determinations; read-out: 5-HT7 IC-50
Counter-ions that a name gives are not always drawn.
PROPERTY: IC50 (nM)

Check out these entries, answers already filled in.
QUERY: Query (compound): COc1cc2c(cc1OC)CN(CCCCNS(=O)(=O)c1ccccc1Cl)CC2 [Compound 118] ; field requested: IC50
RESULT: 39.2

QUERY: Given the compound COc1cc2c(cc1OC)CN(CCCCNS(=O)(=O)c1ccccc1Br)CC2 [Compound 257] , what is its reported IC50?
RESULT: 57.2

QUERY: Looking for the measured IC50 of O=S(=O)(NCCCCN1CCc2ccccc2C1)c1ccccc1 [Compound 5] , can you help?
RESULT: 33.2

QUERY: What measured IC50 goes with O=S(=O)(NCCCCN1CCc2ccccc2C1)c1cc(F)c(F)cc1F [Compound 142] ?
RESULT: 80.4

QUERY: I have this compound here, COc1ccc(OC)c(S(=O)(=O)NCCCCN2CCc3cc(OC)c(OC)cc3C2)c1 [Compound 235] , and I need its recorded IC50.
RESULT: 68.4

QUERY: Would you kindly share the measured IC50 for O=S(=O)(NCCCCN1CCc2ccccc2C1)c1c(F)cc(F)cc1Br [Compound 160] ?
RESULT: 74.4

QUERY: I'd like to know its IC50. The compound in question is COc1cc2c(cc1OC)CN(CCCCNS(=O)(=O)c1cc(C)c(Cl)cc1C)CC2 [Compound 220]
RESULT: 67.4

(A) O=S(=O)(NCCCCN1CCc2ccccc2C1)c1ccc2ccccc2c1 [Compound 2, hydrochloride]
(B) COc1cc2c(cc1OC)CN(CCCCNS(=O)(=O)c1cc(Cl)c(F)cc1F)CC2 [Compound 116]
QUERY: A or B : whose IC50 is greater? Choose, then provide that item's label.
RESULT: A
(A: 59.2 nM, B: 31.1 nM)
